# system_tested: hFASN enzyme (full length) (Homo sapiens)
# Construct: 10 μL hFASN enzyme (full length, 300 ng, purified in house); made in house
# Sequence (P49327 whole entry): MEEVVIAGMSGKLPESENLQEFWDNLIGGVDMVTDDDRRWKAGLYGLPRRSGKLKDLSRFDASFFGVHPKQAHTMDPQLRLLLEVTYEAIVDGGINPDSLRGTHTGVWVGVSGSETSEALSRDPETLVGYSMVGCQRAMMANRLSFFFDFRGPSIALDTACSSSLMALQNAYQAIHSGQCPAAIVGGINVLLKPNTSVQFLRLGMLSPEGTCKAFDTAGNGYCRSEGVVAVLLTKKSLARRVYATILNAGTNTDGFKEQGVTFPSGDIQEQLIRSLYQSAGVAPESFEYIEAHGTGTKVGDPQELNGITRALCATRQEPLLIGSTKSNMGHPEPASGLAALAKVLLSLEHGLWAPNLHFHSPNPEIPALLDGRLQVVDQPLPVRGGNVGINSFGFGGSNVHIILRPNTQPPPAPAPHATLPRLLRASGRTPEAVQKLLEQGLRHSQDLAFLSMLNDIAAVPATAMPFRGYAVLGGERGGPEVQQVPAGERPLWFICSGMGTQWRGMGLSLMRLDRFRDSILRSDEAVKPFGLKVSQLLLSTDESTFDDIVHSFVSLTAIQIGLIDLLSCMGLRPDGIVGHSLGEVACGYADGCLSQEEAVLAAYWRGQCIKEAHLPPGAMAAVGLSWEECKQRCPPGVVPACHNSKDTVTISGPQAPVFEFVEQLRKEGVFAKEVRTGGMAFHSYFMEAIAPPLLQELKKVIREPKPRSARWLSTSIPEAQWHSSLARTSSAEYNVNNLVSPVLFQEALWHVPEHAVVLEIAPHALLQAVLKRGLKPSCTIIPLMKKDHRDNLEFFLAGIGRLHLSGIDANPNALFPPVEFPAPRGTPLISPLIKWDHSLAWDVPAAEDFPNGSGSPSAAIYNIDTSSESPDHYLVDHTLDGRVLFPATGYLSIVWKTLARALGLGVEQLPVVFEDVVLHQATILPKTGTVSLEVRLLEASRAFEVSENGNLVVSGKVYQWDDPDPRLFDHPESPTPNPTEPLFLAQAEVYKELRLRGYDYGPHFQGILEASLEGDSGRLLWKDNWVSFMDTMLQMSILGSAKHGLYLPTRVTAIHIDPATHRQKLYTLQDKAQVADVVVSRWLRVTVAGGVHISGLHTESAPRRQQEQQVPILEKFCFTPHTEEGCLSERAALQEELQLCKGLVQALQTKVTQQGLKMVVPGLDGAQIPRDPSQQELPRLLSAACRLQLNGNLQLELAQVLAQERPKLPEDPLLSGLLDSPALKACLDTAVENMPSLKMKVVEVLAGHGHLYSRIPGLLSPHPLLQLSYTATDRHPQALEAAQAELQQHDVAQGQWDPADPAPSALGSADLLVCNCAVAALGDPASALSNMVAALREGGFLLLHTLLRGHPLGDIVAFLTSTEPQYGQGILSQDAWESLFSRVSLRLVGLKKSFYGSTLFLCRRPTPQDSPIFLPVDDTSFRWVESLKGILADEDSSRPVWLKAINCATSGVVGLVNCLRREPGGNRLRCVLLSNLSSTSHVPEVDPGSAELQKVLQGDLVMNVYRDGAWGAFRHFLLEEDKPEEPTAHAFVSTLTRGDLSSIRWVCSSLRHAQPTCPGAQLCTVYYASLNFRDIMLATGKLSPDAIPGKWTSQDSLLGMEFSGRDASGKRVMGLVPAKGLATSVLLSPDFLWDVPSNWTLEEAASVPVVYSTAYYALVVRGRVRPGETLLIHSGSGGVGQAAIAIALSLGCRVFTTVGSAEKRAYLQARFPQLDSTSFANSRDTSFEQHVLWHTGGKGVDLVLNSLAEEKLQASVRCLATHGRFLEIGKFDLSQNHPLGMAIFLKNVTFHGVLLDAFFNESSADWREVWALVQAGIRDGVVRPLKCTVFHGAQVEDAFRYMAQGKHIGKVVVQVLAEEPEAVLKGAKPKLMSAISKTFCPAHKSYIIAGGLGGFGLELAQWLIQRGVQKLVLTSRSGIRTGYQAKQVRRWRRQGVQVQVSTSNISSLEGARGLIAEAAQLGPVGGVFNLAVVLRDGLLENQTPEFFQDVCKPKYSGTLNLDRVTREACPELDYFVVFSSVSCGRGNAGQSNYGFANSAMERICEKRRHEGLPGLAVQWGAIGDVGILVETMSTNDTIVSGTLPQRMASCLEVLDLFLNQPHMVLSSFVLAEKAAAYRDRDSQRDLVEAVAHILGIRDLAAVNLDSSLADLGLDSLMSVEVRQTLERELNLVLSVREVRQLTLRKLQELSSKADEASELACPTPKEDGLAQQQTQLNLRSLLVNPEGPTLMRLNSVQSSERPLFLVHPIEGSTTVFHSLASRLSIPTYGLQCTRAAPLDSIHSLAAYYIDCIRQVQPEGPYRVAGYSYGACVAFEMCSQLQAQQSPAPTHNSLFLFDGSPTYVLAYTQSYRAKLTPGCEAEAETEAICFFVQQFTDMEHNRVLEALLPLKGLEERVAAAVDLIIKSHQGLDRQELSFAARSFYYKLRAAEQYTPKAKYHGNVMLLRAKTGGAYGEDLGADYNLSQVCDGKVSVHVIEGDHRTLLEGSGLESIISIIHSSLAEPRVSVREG
# assay_method_text: Fatty Acid Synthase (FASN) inhibition scintillation proximity assay
# Format: biochemical
# condition_description: read-out: Human FASN pIC50 (converted)
Sorting guide: entries reporting IC50 beneath 40 nM go in the yes (1) pile, the rest go in the no (0) pile.

Please review the entries below; each comes with its answer.
Cn1ccc(C(=O)N2CC[C@@H](CN3C(=O)C4(CCCC4)N=C3c3ccc(-c4ccc5occc5c4)cc3)C2)n1 :: no (0)
O=C(C1CC1)N1CC[C@@H](CN2C(=O)C3(CC3)N=C2c2ccc(-c3nc4ccccc4o3)cc2F)C1 :: yes (1)
COC(=O)N1CC[C@@H](CN2C(=O)C3(CN(C(=O)OC)C3)N=C2c2ccc(-c3ccc4occc4c3)cc2)C1 :: no (0)

Task: Check if IC50 falls below 40 nM for `O=C(C1CC1)N1CC[C@@H](CN2C(=O)C3(CC3)N=C2c2ccc(-c3ccc4[nH]ccc4c3)cc2F)C1` .
Result: yes (1)

Task: Another compound: `Cc1ccc2cc(-c3ccc(C4=NC5(CC5)C(=O)N4CC4CN(C(=O)C5(C)CC5)C4)c(C)c3)ccc2c1`
Result: yes (1)

Task: Another compound: `O=C(C1CC1)N1CC(CN2C(=O)C3(CC3)N=C2c2ccc(-c3ccc4c(cnn4C4COC4)c3)cc2)C1`
Result: no (0)

Task: Another compound: `CC(=O)N1CCC2(CC1)N=C(c1ccc(-c3ccc4[nH]ccc4c3)cc1)N(C[C@@H]1CCN(C(=O)C3CC3)C1)C2=O`
Result: no (0)

Task: Another compound: `Cc1cc(-c2ccc(C3=NC4(CC4)C(=O)N3CC3CN(C(=O)C4CC4)C3)c(F)c2)cc2cnn(C)c12`
Result: no (0)

Task: Another compound: `O=C(C1CC1)N1CCC(CN2C(=O)C3(CC3)N=C2c2ccc(-c3cccc(F)c3)cc2)CC1`
Result: no (0)

Task: Another compound: O=C(c1nccs1)N1CC(CN2C(=O)C3(CCOC3)N=C2c2ccc(-c3ccc4occc4c3)cc2)C1 (centres unmarked)
Result: no (0)

Task: Another compound: `O=C(C1CC1)N1CC[C@@H](CN2C(=O)C3(CC3)N=C2c2ccc(-c3ccc4[nH]ncc4c3)cc2F)C1`
Result: yes (1)

Task: Another compound: `O=C(C1CC1)N1CCC(CN2C(=O)C3(CCCC3)N=C2c2ccc(-c3ccc4occc4c3)cc2)CC1`
Result: no (0)
